biological target: fixed activated platelets (Homo sapiens, UniProt P05106+P08514); assay: Platelet Aggregation Assay (fibrinogen-mediated aggregation of fixed-activated platelets); format: cell-based; conditions: read-out: Inhibition of Fibrinogen Mediated Platelet Aggregation % inhibition at 25 μM
Exercise: state measured inhibition at 25 µM for each of the compounds provided.
Give bare numbers, in %.

Here's what some known entries look like.
>>> numeric_readout("CC(C)CNC(=O)[C@H](CCCNC(=N)N)NC(=O)[C@H](CC(=O)O)NC(=O)CCCCCCCCNC(=N)N")
89
>>> numeric_readout("COC(=O)[C@](CCCNC(=N)N)(Cc1ccccc1)NC(=O)[C@H](CC(=O)O)NC(=O)CCCCCCCCNC(=N)N")
69

Provide inhibition at 25 µM for all items below, preserving their order.
1. N=C(N)NCCCCCCCC(=O)N[C@@H](CC(=O)O)C(=O)N[C@@H](Cc1ccccc1)C(=O)O
2. CC[C@H](C)[C@H](NC(=O)[C@@H](NC(=O)[C@H](CC(=O)O)NC(=O)CCCCCCCCNC(=N)N)[C@@H](C)CC)C(=O)O
3. CC(C)[C@H](NC(=O)[C@H](CC(=O)O)NC(=O)CN(C)C(=O)CCCCNC(=N)N)C(=O)O
4. CC[C@H](C)[C@H](NC(=O)CCNC(=O)[C@H](CC(=O)O)NC(=O)CCCCCCCCNC(=N)N)C(=O)O
5. CCCC[C@H](NC(=O)[C@H](CC(=O)O)NC(=O)CCCCCCCCNC(=N)N)C(=O)N[C@@H](CCCNC(=N)N)C(=O)O

Result ::
1: 96; 2: 45; 3: 94; 4: 9; 5: 95

Memo: `Cc1nccn1CCCCCCCCC(=O)N[C@@H](CC(=O)O)C(=O)N[C@H](C(=O)O)C(C)C` , reported inhibition at 25 µM: 74

---

target: fixed activated platelets (Homo sapiens, UniProt P05106+P08514); assay: Platelet Aggregation Assay (fibrinogen-mediated aggregation of fixed-activated platelets); assay type: cell-based; conditions: fixed activated platelets, human fibrinogen 250 μg/ml; read-out: Inhibition of Fibrinogen Mediated Platelet Aggregation IC50
Non-standard residues stand in square brackets, D forms with d. Residues, ends and D or L forms follow the SMILES beside them. Orn = NCCC[C@H](N)C(=O)O; Ahx = NCCCCCC(=O)O; NEtG = CCNCC(=O)O
MEASUREMENT_KIND: IC50 (µM)
Give bare numbers, in µM.

>>> numeric_readout("CC(C)[C@H](NC(=O)[C@H](CC(=O)O)NC(=O)CCCCCCCCNC(=N)N)C(=O)N[C@@H](CCCNC(=N)N)C(=O)O")
0.22
>>> numeric_readout("CC[C@H](C)[C@H](NC(=O)CNC(=O)[C@H](CC(=O)O)NC(=O)CCCCCCCCNC(=N)N)C(=O)O")
25

Required: IC50, one value per compound below.
1. CC(C)[C@H](NC(=O)[C@H](CC(=O)O)NC(=O)C=CCCCCCCCNC(=N)N)C(=O)O
2. CCN(CC(=O)N[C@@H](CC(=O)O)C(=O)N[C@H](C(=O)O)C(C)C)C(=O)CCCCCN (H-[Ahx][NEtG]DV-OH)
3. CCN(CC(=O)N[C@@H](CC(=O)O)C(=O)NC(CC)(CC)C(=O)O)C(=O)CCCCCNC(=N)N
4. CC(C)[C@H](NC(=O)[C@H](CC(=O)O)NC(=O)CCCCCCCNC(=N)N)C(=O)O [8-Guanidinooctanoyl-L-aspartyl-L-valine]
5. CC(C)[C@H](NC(=O)[C@H](CC(=O)O)NC(=O)CNC(=O)[C@@H](N)CCCN)C(=O)O [L-ornithylglycyl-L-aspartyl-L-valine] (H-[Orn]GDV-OH)

Result ::
[8.8, 4.1, 11.4, 2.7, 15]

---

target: fixed activated platelets (Homo sapiens, UniProt P05106+P08514); assay: Platelet Aggregation Assay (fibrinogen-mediated aggregation of fixed-activated platelets); type: cell-based; conditions: read-out: Inhibition of Fibrinogen Mediated Platelet Aggregation % inhibition at 25 μM
Exercise: for every item that follows, state its recorded inhibition at 25 µM.
Give bare numbers, in %.

>>> numeric_readout("CC[C@H](C)[C@H](NC(=O)[C@H](CC(=O)O)NC(=O)CN(CC)C(=O)CCCCCNC(=N)N)C(=O)O")
96

Quick request: inhibition at 25 µM for each listed item, please.
1. CC(C)[C@H](NC(=O)[C@H](CC(=O)O)NC(=O)CN(C)C(=O)CCCCCn1ccnc1-c1ccccc1)C(=O)O
2. CCN(CC(=O)N[C@@H](CC(=O)O)C(=O)N[C@@H](Cc1ccc(O)cc1)C(=O)O)C(=O)CCCCCNC(=N)N
3. CN(CC(=O)N[C@@H](CC(=O)O)C(=O)N[C@@H](Cc1ccc(O)cc1)C(=O)O)C(=O)CCCCCNC(=N)N
4. CCN(CC(=O)N[C@@H](CC(=O)O)C(=O)N[C@@H](Cc1ccccc1)C(=O)O)C(=O)CCCCCNC(=N)N
5. CCCC(C)CN(CC(=O)N[C@@H](CC(=O)O)C(=O)N[C@H](C(=O)O)C(C)C)C(=O)CCCCCNC(=N)N (stereo partly drawn)

Result ::
1: 84; 2: 95; 3: 94; 4: 97; 5: 86

---

molecular target: thrombin-stimulated platelets (Homo sapiens, UniProt P05106+P08514); assay: Fibrinogen-Binding Assay (125I-fibrinogen binding to platelets); settings: read-out: Inhibition of 125I-Fibrinogen Binding to Platelets IC50; 125I-fibrinogen 0.176 μmol/liter, thrombin-stimulated platelets
Sequence (P08514 32-1039): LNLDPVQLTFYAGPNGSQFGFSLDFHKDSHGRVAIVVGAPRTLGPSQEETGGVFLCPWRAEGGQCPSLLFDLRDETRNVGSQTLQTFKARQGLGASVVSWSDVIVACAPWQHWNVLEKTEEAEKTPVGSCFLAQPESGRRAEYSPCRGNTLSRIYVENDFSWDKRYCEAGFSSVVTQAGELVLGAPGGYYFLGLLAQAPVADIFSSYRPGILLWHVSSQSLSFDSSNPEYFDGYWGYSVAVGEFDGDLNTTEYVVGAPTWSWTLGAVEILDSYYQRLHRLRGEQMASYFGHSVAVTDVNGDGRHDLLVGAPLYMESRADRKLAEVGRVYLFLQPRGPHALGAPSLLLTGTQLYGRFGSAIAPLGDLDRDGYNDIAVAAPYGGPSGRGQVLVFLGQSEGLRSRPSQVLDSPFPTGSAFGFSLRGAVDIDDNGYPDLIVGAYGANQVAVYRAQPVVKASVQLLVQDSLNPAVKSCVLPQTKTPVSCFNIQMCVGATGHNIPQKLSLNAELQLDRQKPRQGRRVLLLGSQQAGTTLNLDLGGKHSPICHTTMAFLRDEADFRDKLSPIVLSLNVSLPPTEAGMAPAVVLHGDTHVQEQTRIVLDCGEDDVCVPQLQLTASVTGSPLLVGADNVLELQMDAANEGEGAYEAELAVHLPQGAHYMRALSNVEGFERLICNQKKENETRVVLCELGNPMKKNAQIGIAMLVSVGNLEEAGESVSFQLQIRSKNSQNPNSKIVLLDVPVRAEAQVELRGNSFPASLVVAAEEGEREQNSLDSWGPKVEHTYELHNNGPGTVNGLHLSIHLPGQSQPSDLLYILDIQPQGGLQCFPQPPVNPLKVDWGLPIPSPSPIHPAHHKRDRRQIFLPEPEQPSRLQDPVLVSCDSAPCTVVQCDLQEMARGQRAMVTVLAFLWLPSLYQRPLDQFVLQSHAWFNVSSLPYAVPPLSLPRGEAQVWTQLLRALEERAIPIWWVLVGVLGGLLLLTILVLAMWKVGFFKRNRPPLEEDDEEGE
Sequence (P05106 27-788): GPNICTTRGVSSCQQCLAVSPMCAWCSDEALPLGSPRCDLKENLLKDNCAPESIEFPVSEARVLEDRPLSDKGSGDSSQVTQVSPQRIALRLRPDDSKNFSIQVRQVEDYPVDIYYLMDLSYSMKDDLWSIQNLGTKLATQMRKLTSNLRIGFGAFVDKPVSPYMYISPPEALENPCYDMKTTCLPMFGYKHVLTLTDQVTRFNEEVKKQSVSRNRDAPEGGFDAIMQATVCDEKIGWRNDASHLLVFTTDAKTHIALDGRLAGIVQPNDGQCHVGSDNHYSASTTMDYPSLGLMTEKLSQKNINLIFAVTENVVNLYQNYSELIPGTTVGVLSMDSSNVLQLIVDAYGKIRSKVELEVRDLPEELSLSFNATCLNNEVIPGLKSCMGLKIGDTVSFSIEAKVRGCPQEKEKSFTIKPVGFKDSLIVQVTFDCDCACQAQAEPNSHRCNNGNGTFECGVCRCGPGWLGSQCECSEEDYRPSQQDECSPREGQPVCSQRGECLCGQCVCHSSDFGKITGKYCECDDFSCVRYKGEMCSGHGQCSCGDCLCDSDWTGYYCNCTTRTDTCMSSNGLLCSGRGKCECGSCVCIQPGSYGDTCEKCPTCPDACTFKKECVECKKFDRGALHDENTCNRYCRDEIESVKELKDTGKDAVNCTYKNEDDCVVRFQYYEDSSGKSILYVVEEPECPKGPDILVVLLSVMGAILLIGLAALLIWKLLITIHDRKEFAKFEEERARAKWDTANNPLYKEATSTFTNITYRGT
MEASUREMENT_KIND: IC50 (µM)
Give bare numbers, in µM.

// IC50 value for `CC(C)[C@H](NC(=O)[C@H](CC(=O)O)NC(=O)Cn1nnnc1CCCCCNC(=N)N)C(=O)O` : 2.2

---

target: fixed activated platelets (Homo sapiens, UniProt P05106+P08514); test: Platelet Aggregation Assay (fibrinogen-mediated aggregation of fixed-activated platelets); type: cell-based; details: read-out: Inhibition of Fibrinogen Mediated Platelet Aggregation % inhibition at 100 μM
Non-standard residues stand in square brackets, D forms with d. Residues, ends and D or L forms follow the SMILES beside them. NMeV = CN[C@H](C(=O)O)C(C)C; Orn = NCCC[C@H](N)C(=O)O; Ava = NCCCCC(=O)O; Sar = CNCC(=O)O
Assign inhibition at 100 µM to each entry below.
Answers are plain numbers, in %.

Example entries and their recorded answers appear below.
>>> numeric_readout("CC(C)[C@H](NC(=O)[C@H](C)NC(=O)CNC(=O)[C@@H](N)CCCNC(=N)N)C(=O)O [L-arginylglycyl-L-alanyl-L-valine] (H-RGAV-OH)")
17.5
>>> numeric_readout("CC(C)[C@H](NC(=O)[C@H](CC(=O)O)NC(=O)CNC(=O)CCCCNC(=N)N)C(=O)O")
92
>>> numeric_readout("N=C(N)NCCC[C@H](N)C(=O)NCC(=O)N[C@@H](CC(=O)O)C(=O)NCC(=O)O [L-arginylglycyl-L-aspartyl glycine] (H-RGDG-OH)")
91
>>> numeric_readout("CC(C)CNC(=O)[C@H](CC(=O)O)NC(=O)CNC(=O)[C@@H](N)CCCNC(=N)N")
89

Respectfully, I request inhibition at 100 µM for each entry included below.
1. N=C(N)NCCCCC(=O)NCC(=O)N[C@@H](CC(=O)O)C(=O)N1CCc2ccccc2C1
2. CC(C)[C@H](NC(=O)CNC(=O)CNC(=O)[C@@H](N)CCCNC(=N)N)C(=O)O [L-arginyl glycyl glycyl-L-valine] (H-RGGV-OH)
3. CC(C)[C@H](NC(=O)[C@H](CC(=O)O)NC(=O)CN(C)C(=O)[C@@H](N)CCCNC(=N)N)C(=O)O [L-arginylsarcosyl-L-aspartyl-L-valine] (H-R[Sar]DV-OH)
4. CC(C)[C@H](NC(=O)[C@H](CC(=O)O)NC(=O)CNC(=O)[C@@H](N)CCCN)C(=O)O [L-ornithylglycyl-L-aspartyl-L-valine] (H-[Orn]GDV-OH)
5. CC(C)[C@H](NC(=O)[C@@H](N)CCCNC(=O)[C@@H](N)CCCNC(=N)N)C(=O)O [N-δ-(L-arginyl)-L-ornithyl-L-valine] (H-[Orn](Arg)-Val-OH)
6. CC(C)[C@H](NC(=O)[C@H](CC(=O)O)NC(=O)[C@@H](N)CCCNC(=N)N)C(=O)O [L-arginyl-L-aspartyl-L-valine] (H-Arg-Asp-Val-OH)
7. N=C(N)NCCC[C@H](N)C(=O)NCC(=O)N[C@@H](CC(=O)O)C(=O)OCc1ccccc1
8. CC(C)[C@@H](C(=O)O)N(C)C(=O)[C@H](CC(=O)O)NC(=O)CNC(=O)[C@@H](N)CCCNC(=N)N (H-RGD[NMeV]-OH)

Result ::
1: 48; 2: 10; 3: 92; 4: 80; 5: 20; 6: 49; 7: 96; 8: 30

I would be grateful if you could provide inhibition at 100 µM for each of the following entries.
1. N=C(N)NCCCCC(=O)NCC(=O)N[C@@H](CC(=O)O)C(=O)NCCc1ccccc1
2. CC(C)[C@H](NC(=O)[C@H](CC(=O)O)NC(=O)CNC(=O)CCCCN)C(=O)O (H-[Ava]GDV-OH)

Result ::
86
67

Every entry's value here was drawn from patent US5332726A.
